Biological target: T1, catalytic domain of human MMP-14 (cdMMP-14) (human, UniProt P50281 114-320)
T1 construct: range 114-320; Produced active in E. coli periplasm; biotinylated for BLI/ELISA
Test: FRET peptide inhibition assay; KI=IC50/(S/Km+1)
Would you kindly list pKi for each of these binders?
Worth noting: pKi values are minus log10 of concentrations stated in mol/L.

Return reported pKi; argument: anti-MMP-14 Fab 2D9 (Fab, V domains shown, Fab from a synthetic human Fab library, produced in E. coli periplasm; also called Clone 2D9) VH: EVQLVESGGGLVQPGGSLRLSCAASGFNISSSSMHWVRQAPGKGLEWVASIYPYYGYTYYADSVKGRFTISADTSKNTAYLQMNSLRAEDTAVYYCARGVTRFTNDASVGQVWAGAYGMDYWGQGTLVTVSS VL: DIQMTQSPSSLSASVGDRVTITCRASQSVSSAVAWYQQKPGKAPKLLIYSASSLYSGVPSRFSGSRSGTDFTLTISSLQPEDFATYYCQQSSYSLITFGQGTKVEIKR 6.64

Return reported pKi; argument: anti-MMP-14 Fab 2B10 (Fab, V domains shown, Fab from a synthetic human Fab library, produced in E. coli periplasm; also called Clone 2B10) VH: EVQLVESGGGLVQPGGSLRLSCAASGFNIYYSYMHWVRQAPGKGLEWVASIYPSYGYTYYADSVKGRFTISADTSKNTAYLQMNSLRAEDTAVYYCARQLFACWRQSILTPPLLSAMMMGYAMDYWGQGTLVTVSS VL: DIQMTQSPSSLSASVGDRVTITCRASQSVSSAVAWYQQKPGKAPKLLIYSASSLYSGVPSRFSGSRSGTDFTLTISSLQPEDFATYYCQQYSVAYVWLITFGQGTKVEIKR 6.68

Return reported pKi; argument: anti-MMP-14 Fab 1A5 (Fab, V domains shown, Fab from a synthetic human Fab library, produced in E. coli periplasm; also called Clone 1A5) VH: EVQLVESGGGLVQPGGSLRLSCAASGFNLYYYYMHWVRQAPGKGLEWVAYIYPYSGSTYYADSVKGRFTISADTSKNTAYLQMNSLRAEDTAVYYCARLDFLMRDIYYDLGGGALGWLIKYAMDYWGQGTLVTVSS VL: DIQMTQSPSSLSASVGDRVTITCRASQSVSSAVAWYQQKPGKAPKLLIYSASSLYSGVPSRFSGSRSGTDFTLTISSLQPEDFATYYCQQYSGPYPITFGQGTKVEIKR 6.82
